Attribute: protein stability index
Assay: protein stability index of a GFP-peptide fusion (yeast GPS) (PSI 1-4); higher = more stable; sorted into four equal gates, so the index is relative within each strain
Conditions: pdr5∆

# Sequence Input, protein stability index
records = [
    ("VNWLAYTYLYVRMLASP [BRR2]", 1.14),
    ("NNTHVGRQFCNRLSRIH [YLR018C/POM34]", 2.69),
    ("GCIKIYSSRVDSVTTET [BRN1]", 2.52),
    ("AEHKYMPYTINELLEMV [BRR2]", 3.04),
    ("LQYLPLYAVSTFENTNN [SIR4]", 1.71),
    ("LPKLKATGHRVLIFFQM [SNF2]", 1.52),
    ("EELINAAKGSSTSYAIK [RPS5]", 1.88),
    ("TKSSKEFFNTLRKSRET [RRI2]", 3.42),
    ("STDELVGSPLTVSILQE [POP8]", 2.62),
    ("TSAHLKLKEMQKVLNAH [SMC4]", 2.76),
    ("SCHGHFGHLKLALPVFH [RPO31]", 1.4),
    ("SLKCTDPYELKGEVVLV [ITC1]", 3.1),
    ("SKYCEKSLPLLITVMEK [YCS4]", 1.86),
    ("QYSTRHDAPRGLFPFES [SWI3]", 3.17),
    ("WAVKEGPLAEEPIYGVQ [SNU114]", 2.53),
]

---

Test: protein stability index of a GFP-peptide fusion (yeast GPS) (PSI 1-4); higher = more stable; sorted into four equal gates, so the index is relative within each strain
Conditions: pdr5∆
Quick rule: protein stability index of at least 3 means Satisfied, below that means Not satisfied.

# Sequence Input, Label Class
data = [
    ("FVSSGFDTSIKLDIISD [RPN14]", "Not satisfied"),
    ("KIKFDESSKLMTVTKVS [BRR2]", "Not satisfied"),
    ("SEYKVAFPHLYNSRPRS [PRP8]", "Not satisfied"),
    ("APNNSNGGSEEEITCAL [MED7]", "Satisfied"),
    ("NENPINKIMTNQINSFW [NUT1]", "Not satisfied"),
    ("NDENDDEFYINVDKNLN [RPN14]", "Not satisfied"),
    ("GSKIRVMWGKVTRTHGN [RPL33A]", "Not satisfied"),
    ("EKDCSLRAIEKNDDNSC [YIL149C/MLP2]", "Not satisfied"),
    ("LWGPHGLNSDAEEVRNF [ECM29]", "Satisfied"),
    ("LWNLNAYRTDVIQALGG [PRP8]", "Not satisfied"),
    ("LLSQFGIKVLPETCLFV [YML103C/NUP188]", "Not satisfied"),
    ("SKLLVPQKNVKIQVVDR [PRE10]", "Not satisfied"),
    ("NHKIIARVKAFDRHCNM [SMD2]", "Not satisfied"),
]

---

Assay: protein stability index of a GFP-peptide fusion (yeast GPS) (PSI 1-4); higher = more stable; sorted into four equal gates, so the index is relative within each strain
Details: san1∆
Quick rule: protein stability index of at least 3 means Criterion met, below that means Criterion not met.

# Sequence Input, Label Class
data = [
    ("KMNNKPERFMVFQLPTR [RPC53]", "Criterion not met"),
    ("ENEMIKPMNKGQHKNNT [SWP82]", "Criterion met"),
    ("MATIASEYSSEASNTPI [PRE7]", "Criterion not met"),
    ("TTLDAEKVFTQGLNILE [FAS1]", "Criterion met"),
    ("TCSYVEEAGSPLVYRHE [RPB9]", "Criterion met"),
    ("NCVNDVLEFCKDYEAKT [POP1]", "Criterion met"),
    ("NDPEILKKIASIPNLFP [SWI1]", "Criterion not met"),
    ("DFDDSTAQEINFKMLVL [IRR1]", "Criterion not met"),
    ("RADVEDESNDIDMIADE [RPC37]", "Criterion not met"),
    ("NTVMLQGIFKNSSNYFG [AAR2]", "Criterion not met"),
    ("HDEKSDSLNEWIKFDQE [RPN7]", "Criterion met"),
    ("VSTRAIDLLWKGKTPKN [PRP28]", "Criterion not met"),
    ("EIEQPVTTFVFTGQGSQ [FAS1]", "Criterion not met"),
    ("NNNGNSAASKKKKNKNK [SRP21]", "Criterion met"),
    ("LKKVQQQQQAAALANAN [SWI1]", "Criterion not met"),
    ("ATFLKDDLPYYVNALAD [QCR2]", "Criterion not met"),
    ("AVDKVISGYKKFSSTSR [RPT1]", "Criterion met"),
    ("EYALPKTYNKLHYCVSC [RPS26A]", "Criterion not met"),
    ("DTFGEGIIITDQSNVQY [BRR2]", "Criterion not met"),
    ("TSKQHKRSGHRTAPKSD [RPL18A]", "Criterion met"),
    ("KDHDLKIPLPEVHDLIG [POP1]", "Criterion not met"),
    ("LIIDEIHLLHDDRGPVL [BRR2]", "Criterion met"),
    ("TAKKDMSSTTPKLESVK [SNF12]", "Criterion met"),
    ("FPFVLKVDNDLRIELQS [SRB8]", "Criterion not met"),
    ("FVCRGMAATQTIEQSPR [ECM29]", "Criterion not met"),
    ("DGGLFTLFVRDQDSAVV [QCR2]", "Criterion met"),
]
